B1: LINE1-full (parent)
chain: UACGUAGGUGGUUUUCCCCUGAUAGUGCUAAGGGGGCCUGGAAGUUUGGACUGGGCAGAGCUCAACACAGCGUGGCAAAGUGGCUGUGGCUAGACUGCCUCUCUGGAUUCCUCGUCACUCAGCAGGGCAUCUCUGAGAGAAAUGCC

- Variants of: B1
- experimental_details: self-cleavage, relative activity (ratio to wild type); higher = more cleavage; in vitro, sequencing; the parent is a self-cleaving ribozyme
Lab note: compare self-cleavage against 1. Equal or greater, write class 1. Smaller, write class 0.

Below are worked cases with known answers.
>>> assigned_label("CGCGUAGGUGGUUUUCCCCUGAUAGUGCUAAGGGGGCCUGGAAGUUUGGACUGGGCAGAGCUCAACACAGCGUGGCAAAGUGGCUGUGGCUAGACUGCCUCUCUGGAUUCCUCGUCACUCAGCAGGGCAUCUCUGAGAGAAAUGCC")
"class 0"
>>> assigned_label("UACGUAGGCGGUUUUCCCCUGAUAGUGCUAAGGGGGCCUGGAAGUUUGGACUGGGCAGAGCUCAACACAGCGUGGCAAAGUGGCUGUGGCCAGACUGCCUCUCUGGAUUCCUCGUCACUCAGCAGGGCAUCUCUGAGAGAAAUGCC")
"class 1"
>>> assigned_label("UACGUAGGUGGUGUUCCCCUGAUAGUGCUAAGGGGGCCUGGAAGUUUGGACUGGGCAGAGCUCAACACAGCGUGGCAAAGUGGCUGUGGCUAGACUGCCUCUCUGGAUUCCUCGUCACUCAGCAGGGCAUCUCUGAGAGAAGUGCC")
"class 1"
>>> assigned_label("UACGUAGGUGGUUUUCCCCUGAUAGUGCUAAGGGGGCCUGGAAGUUUGGACUGGGCAGAGCUCAACACAGCGUGGCAAAGUGGCUGUGGCUAGACUGCCUCUCUGAAUCCCUCGUCACUCAGCAGGGCAUCUCUGAGAGAAAUGCC")
"class 1"
>>> assigned_label("UACGUAGGUGGUUUUCCCCUGAUAGUGCAAAGGGGGCCUGAAAGUUUGGACUGGGCAGAGCUCAACACAGCGUGGCAAAGUGGCUGUGGCUAGACUGCCUCUCUGGAUUCCUCGUCACUCAGCAGGGCAUCUCUGAGAGAAAUGCC")
"class 1"

Q) Reported self-cleavage reaches at least 1 for `UACGUAGGUGGUUUUCCCCCGAUAGUGCUAAGGGGGCCUGGAAGUUUGGACUGGGCAGAGCUCAACACAGCGUGGCAAAGUGGCUGUGGCUAGACUGCCUCUCUGGAUUCCGCGUCACUCAGCAGGGCAUCUCUGAGAGAAAUGCC` ?
A) class 0

Q) Then what about the variant `UACGUGGGAGGUUUUCCCCUGAUAGUGCUAAGGGGGCCUGGAAGUUUGGACUGGGCAGAGCUCAACACAGCGUGGCAAAGUGGCUGUGGCUAGACUGCCUCUCUGGAUUCCUCGUCACUCAGCAGGGCAUCUCUGAGAGAAAUGCC` ?
A) class 0

Q) Then what about the variant `UACGUAGGGGGUUUUCCCCUGAUAGUGCUAAGGGGGCCUGGAAGUUUGGACUGGGCAGAGCUCAACACAGCGUGGCAAAGUGGCUGUGGCUAGACUGCCUCUCUGGUUUCCUCGUCACUCAGCAGGGCAUCUCUGAGAGAAAUGCC` ?
A) class 0

Q) Then what about the variant `UACGUAGGUGGUUUUCUCCUGAUAGUGCUAAGGGGGCCUGGAAGUUUGGACUGGGCAGAGCUCAACACAGCGUGGCAAAGUGGCUGUGGCUAGACUGCCUCUCUGGAUUCCUCGUCACUCAGCAGGGCAUCUCUGAGAGAAACGCC` ?
A) class 1

Q) Then what about the variant `UACGUAGGUGGAUUUCCCCUGAUAGUGCUAAGGGGGCCUGGAAGUUUGGACUGGGCAGAGCGCAACACAGCGUGGCAAAGUGGCUGUGGCUAGACUGCCUCUCUGGAUUCCUCGUCACUCAGCAGGGCAUCUCUGAGAGAAAUGCC` ?
A) class 0

Q) Then what about the variant `UACGUAGGUGGUUUUCCCCUGAUAGUGCUAAGGGGGCCUGGAAGUUUGGACUGGGCAGAGCUCAACACAGCGUGGCAAAGUGGCUGUGGCUAGACUGCCUCUCUGAAUUCCUCGUCACCCAGCAGGGCAUCUCUGAGAGAAAUGCC` ?
A) class 1

Q) Then what about the variant `UACGUAGGUGGUUUUCCCCUGAUAGUGCUAAGGGGGCCUGGAAGUUUGGACUGGGCAGAGCUCAACACAGCGCGGCAAAGUGGCUGUGGCUAGACUGCCUCUCUGGAUUCCUCGUCACUCAGCAGGGCUUCUCUGAGAGAAAUGCC` ?
A) class 1

Q) Then what about the variant `UACGUAGGUGGUUUUCCCCUGAUAGUGCUAAGGGGGCCUGGAAGUUUGGACUGGGCAGAGCUCAACACAGCGUGGCAAAGUGGCUGUGGCUAGAAUGCCUCUCUGGAUUCCUCGUCACUCAGCAGGGCAUCUCUGAGAGAAAUGCC` ?
A) class 0

Q) Then what about the variant `UACGUAGGUGGUUUUCCCCUGAUAGUGCUAAGGGAGCCUGGAAGUUUGGACUGGGCAGAGCUCAACACAGCGUGGUAAAGUGGCUGUGGCUAGACUGCCUCUCUGGAUUCCUCGUCACUCAGCAGGGCAUCUCUGAGAGAAAUGCC` ?
A) class 1

Q) Then what about the variant `UACGUAGGUGGUUAUCCCCUGAUAGUGCUAAGGGGGCCUGGAAGUUUGGAUUGGGCAGAGCUCAACACAGCGUGGCAAAGUGGCUGUGGCUAGACUGCCUCUCUGGAUUCCUCGUCACUCAGCAGGGCAUCUCUGAGAGAAAUGCC` ?
A) class 0

Q) Then what about the variant `UACGUAGGUGGUUUUCCCCUGAUAGUGCUAAGGGGGCCUGGAAGUUUGGACUGGGCAGAGCUCAACACAGCGUGGCAAAGUGGCUGUGGCUAGACUGCCUCUCUGGAUUCCUCAUCACUCAGCAGGGCACCUCUGAGAGAAAUGCC` ?
A) class 1

Q) Then what about the variant `UACGUAGGUGGUUUUCCCCUGAUAGUGCUAAGGAGGCCUGGAAGUUUGGACUGGGCAGAGCUCAACACAGCGUGGCAAAGUGGCUGUGGCUAGACUGCCUCUCUGGAGUCCUCGUCACUCAGCAGGGCAUCUCUGAGAGAAAUGCC` ?
A) class 1

Q) Then what about the variant `UACGUAGGUGGUUUUCCCCUGAUAGUGCUAAGGGGGCCUGGAAGUUUGGACUGGGCAGAGCUCAACACAGCGUGGCAAAGUGGCUGUGGCUAGACUGCCUCUCUGGAUUCCUCGUCACUCAGCAGGGCAUCCCAGAGAGAAAUGCC` ?
A) class 0

Q) Then what about the variant `UACGUAGGUGGUUUUCCCCUGAUAGUGCUAAGGGGGCCUGGAAGAUUGGACUGGGCAGAGCUCAACACAGCGUGGCAAAGUGGCUGUGGCUAGACUGCCUCUCUGGAUUCCUCGUCACUCCGCAGGGCAUCUCUGAGAGAAAUGCC` ?
A) class 1

Q) Then what about the variant `UACGUAGGUGGUUAUCCCCUGAUAGUGCUAAGGGGGCCUGGAAGUUUGGACUGGGCUGAGCUCAACACAGCGUGGCAAAGUGGCUGUGGCUAGACUGCCUCUCUGGAUUCCUCGUCACUCAGCAGGGCAUCUCUGAGAGAAAUGCC` ?
A) class 0
